- Tested on: P. falciparum K1
- Assay Info: Plasmodium falciparum in vitro assay ([3H] hypoxanthine incorporation)
- Format: cell-based
- Experimental Setup: 72 h, erythrocytic stages of P. falciparum K1 (strain resistant to chloroquine and pyrimethamine), human red cells, 48 h + 24 h with [3H] hypoxanthine
Measured Quantity: IC50 (nM)

Below, 2 compounds whose answers are already recorded.
>  <Compound>
CCCCCc1ccc(CN(C(=O)/C=C/c2ccc(C(F)(F)F)cc2)[C@@H](Cc2ccccc2)C(=O)N2CCN(Cc3ccccc3)CC2)cc1

>  <Assay Target>
P. falciparum K1

>  <IC50 [nM]>
3.8

$$$$
>  <Compound>
CCCCc1ccc(CN(C(=O)/C=C/c2ccc(C(F)(F)F)cc2)[C@@H](Cc2ccccc2)C(=O)N2CCN(Cc3ccccc3)CC2)cc1

>  <Assay Target>
P. falciparum K1

>  <IC50 [nM]>
6.9

$$$$

A. CCCCCc1ccc(CN(C(=O)/C=C/c2ccc(OC)cc2)[C@@H](Cc2ccccc2)C(=O)N2CCN(Cc3ccccc3)CC2)cc1
B. C[C@@H]1CC[C@H]2[C@@H](C)C(=O)O[C@@H]3O[C@@]4(C)CC[C@@H]1[C@]32OO4 [Artemisinin, artemisinin, reference compound]
C. O=C([C@H](Cc1ccccc1)N(Cc1ccc(-c2ccncc2)nc1)C(=O)/C=C/c1ccc(C(F)(F)F)cc1)N1CCN(Cc2ccccc2)CC1
D. CCCCOc1ccc(CN(C(=O)/C=C/c2ccc(OC)cc2)[C@@H](Cc2ccccc2)C(=O)N2CCN(Cc3ccccc3)CC2)cc1
### Prompt Which order do these items take when sorted by rising IC50? List them. Lab note: final answer is the ordered label list.
### Response B, C, A, D
(B: 2 nM, C: 4.8 nM, A: 7 nM, D: 11 nM)

###

- Tested on: P. falciparum K1
- Assay Info: Plasmodium falciparum in vitro assay ([3H] hypoxanthine incorporation)
- Type: cell-based
- Experimental Setup: 72 h, erythrocytic stages of P. falciparum K1 (strain resistant to chloroquine and pyrimethamine), human red cells, 48 h + 24 h with [3H] hypoxanthine
Measured Quantity: IC50 (nM)

>  <Entry Smiles>
CCCCCc1ccc(CN(C(=O)CCc2cc(C(F)(F)F)cc(C(F)(F)F)c2)[C@@H](Cc2ccccc2)C(=O)N2CCN(Cc3ccccc3)CC2)cc1

>  <Units Label>
nM

>  <IC50>
588

$$$$
>  <Entry Smiles>
CCCCCc1ccc(CN(C(=O)/C=C/c2ccc(C(F)(F)F)cc2)[C@@H](Cc2ccccc2)C(=O)N2CCN(Cc3ccc(C(F)(F)F)nc3)CC2)cc1

>  <Units Label>
nM

>  <IC50>
11

$$$$
>  <Entry Smiles>
CCCCOc1ccc(CN(C(=O)/C=C/c2ccc(C(F)(F)F)cc2)[C@@H](Cc2ccccc2)C(=O)N2CCN(Cc3ccccc3)CC2)cc1

>  <Units Label>
nM

>  <IC50>
7.5

$$$$

a. COc1ccc(/C=C/C(=O)N(Cc2ccc(OCCCN(C)C)cc2)[C@@H](Cc2ccccc2)C(=O)N2CCN(Cc3ccccc3)CC2)cc1
b. CC(C)Cc1ccc(CN(C(=O)/C=C/c2ccc(C(F)(F)F)cc2)[C@@H](Cc2ccccc2)C(=O)N2CCN(Cc3ccccc3)CC2)cc1
c. CCCCCc1ccc(CN(C(=O)/C=C/c2ccccc2C(F)(F)F)[C@@H](Cc2ccccc2)C(=O)N2CCN(Cc3ccccc3)CC2)cc1
### Prompt // smallest IC50 at index 0, largest at the end Order the labels as requested and give them as your answer.
### Response a, b, c

###

- System: P. falciparum K1
- Assay Info: Plasmodium falciparum in vitro assay ([3H] hypoxanthine incorporation)
- Format: cell-based
- Experimental Setup: 72 h, erythrocytic stages of P. falciparum K1 (strain resistant to chloroquine and pyrimethamine), human red cells, 48 h + 24 h with [3H] hypoxanthine
Measured Quantity: IC50 (nM)

A. CCCCCc1ccc(CN(C(=O)/C=C/c2cccc(C(F)(F)F)c2)[C@@H](Cc2ccccc2)C(=O)N2CCN(Cc3ccccc3)CC2)cc1
B. CCCCCc1ccc(CN(C(=O)/C=C/c2cccc(OC)c2)[C@@H](Cc2ccccc2)C(=O)N2CCN(Cc3ccccc3)CC2)cc1
C. O=C([C@H](Cc1ccccc1)N(Cc1ccc(N2CCCC2=O)nc1)C(=O)/C=C/c1ccc(C(F)(F)F)cc1)N1CCN(Cc2ccccc2)CC1
### Prompt Lab note: rank above entries, IC50 ascending. API: response body holds the labels in the requested order.
### Response C, B, A
(C: 9.5 nM, B: 19 nM, A: 70 nM)
